The values you see were collected from ChEMBL document CHEMBL4622983.

# subject-of-test: Phospholipase A and acyltransferase 3 (Homo sapiens)
# Sequence (P53816 whole entry): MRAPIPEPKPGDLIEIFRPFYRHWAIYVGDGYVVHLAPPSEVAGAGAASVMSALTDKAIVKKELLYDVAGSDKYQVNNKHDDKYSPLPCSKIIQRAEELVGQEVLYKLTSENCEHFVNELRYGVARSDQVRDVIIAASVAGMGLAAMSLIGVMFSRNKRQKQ
# protocol-details: Inhibition of full-length C-terminal FLAG-tagged human PLAAT3 expressed in HEK293T cell lysate preincubated for 30 mins followed by MB064 addition and measured after 20 mins by SDS-PAGE based ABPP analysis
pIC50: −log10 of the molar value.
observable: pIC50

In the examples that follow, each entry is paired with its recorded pIC50.
smiles-str: Cc1ccc(CCNC(=O)C(=O)CCCc2ccccc2)cc1
result-number: 6.90

smiles-str: COc1ccc(CCNC(=O)C(=O)CCCc2ccccc2)cc1OC
result-number: 6.00

smiles-str: O=C(CCc1ccccc1Cl)C(=O)NCCc1ccccc1
result-number: 5.70

smiles-str: O=C(CCCc1ccccc1)C(=O)NCCc1ccccc1
result-number: 6.40

[P] O=C(CCCc1ccccc1)C(=O)NCCc1ccc(Oc2cnccn2)cc1
[Q] O=C(CCc1ccc(Cl)c(Cl)c1)C(=O)NCCc1ccccc1
Ask: Hey, which is lower on measured pIC50, P or Q ? Field: selected label. Fill in the label of the entry you choose.
Result: P
